biological target: Enoyl-[acyl-carrier-protein] reductase [NADH] (Mycobacterium tuberculosis); assay: Inhibition of His6-tagged recombinant Mycobacterium tuberculosis InhA expressed in protease-deficient Escherichia coli (BL21) using trans-2-dodecenoyl-coenzyme A as substrate assessed as NADH oxidation
Sequence (P9WGR1 whole entry): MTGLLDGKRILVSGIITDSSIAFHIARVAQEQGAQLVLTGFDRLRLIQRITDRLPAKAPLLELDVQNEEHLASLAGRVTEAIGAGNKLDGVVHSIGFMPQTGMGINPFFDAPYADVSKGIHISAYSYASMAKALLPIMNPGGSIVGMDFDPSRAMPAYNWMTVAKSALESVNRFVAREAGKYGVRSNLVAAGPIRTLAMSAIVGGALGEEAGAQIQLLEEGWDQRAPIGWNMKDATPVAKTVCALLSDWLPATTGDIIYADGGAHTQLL

smiles_code | unit_tag | IC50
C/C(CCC(=O)Nc1ccc(F)cc1)=N\NC(=O)c1ccc(-n2cccc2)cc1 | µM | 7.69

Reference source: ChEMBL document CHEMBL3853305
